Each recorded value in this set is attributed to ChEMBL document CHEMBL4814045.

In this section, each of the compounds is paired with its reported Kd.
measurement.target: MecA (Staphylococcus aureus, UniProt Q7DHH4)
Sequence (Q7DHH4 whole entry): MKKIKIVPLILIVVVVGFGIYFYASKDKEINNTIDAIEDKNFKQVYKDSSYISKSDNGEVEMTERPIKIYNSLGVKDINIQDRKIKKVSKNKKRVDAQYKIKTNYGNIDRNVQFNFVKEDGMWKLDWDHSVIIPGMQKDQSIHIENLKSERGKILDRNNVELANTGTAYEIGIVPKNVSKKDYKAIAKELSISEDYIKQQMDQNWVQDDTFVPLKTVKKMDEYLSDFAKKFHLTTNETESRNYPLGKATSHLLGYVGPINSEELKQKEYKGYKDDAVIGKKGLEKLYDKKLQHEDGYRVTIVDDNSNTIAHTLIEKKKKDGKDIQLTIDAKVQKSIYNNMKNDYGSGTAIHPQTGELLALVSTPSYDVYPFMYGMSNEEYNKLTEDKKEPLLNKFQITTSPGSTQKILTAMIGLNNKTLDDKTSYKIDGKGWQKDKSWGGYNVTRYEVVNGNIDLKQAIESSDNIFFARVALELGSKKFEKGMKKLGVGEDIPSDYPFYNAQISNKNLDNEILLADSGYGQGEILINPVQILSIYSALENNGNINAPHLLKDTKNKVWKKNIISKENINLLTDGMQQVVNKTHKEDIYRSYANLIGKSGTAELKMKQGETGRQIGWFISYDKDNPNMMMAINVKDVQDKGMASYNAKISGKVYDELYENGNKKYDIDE
Express it in nM; write the number only.

>  <compound.structure>
COc1ccc(NC(=O)[C@H]2Oc3c(c(=O)oc4ccccc34)[C@@H]2c2ccc(CCCN3CCCC3=O)cc2)cc1

>  <Kd, nM>
86600

$$$$

Dear colleague, I am looking for the recorded Kd of the following compound: Cc1ccc(NC(=O)[C@H](Cc2c[nH]c3ccccc23)NC(=O)C2CCN(C(=O)CNC(=O)OC(C)(C)C)CC2)cc1 129

Try the compound COc1cc2c(c(OC)c1OC)-c1ccc(NCC(=O)NCCc3c[nH]c4ccccc34)c(=O)cc1[C@@H](NC(C)=O)CC2 168

Try the compound COc1ccc(-c2cc(=O)oc3c(C)c(OCC(=O)N[C@@H](Cc4c[nH]c5ccc(O)cc45)C(=O)O)ccc23)cc1 264
